- assay_explanation: Human HepG2 cell viability assay in 384 well format
- Assay type: toxicity, cell-based
- Design: dose 125 nL, time 70.5 hour; concentration not given beside the values
- experimental_conditions: HepG2 cells, read-out: Inhibition
Consider the following compounds and their measured cytotoxicity at 70.5 h readings.
Give just the numeric value; % need not be written.

Item Cc1ccc(C(=O)N2CCN(S(C)(=O)=O)CC2)cc1N1CCNC1=O has what recorded cytotoxicity at 70.5 h?
-1.5

Item CCSCCNc1nc2c(s1)c(C)nn2C has what recorded cytotoxicity at 70.5 h?
-14.5

Item CCN1C[C@H]2C3(CCN(C(=O)NC(C)C)CC3)CC[C@@]2(C(=O)NC)C1 has what recorded cytotoxicity at 70.5 h?
-11.3

More entries:
Item CCN(CC)C(=O)CNC(=O)c1ccc(-c2ccsc2)nc1C has what recorded cytotoxicity at 70.5 h?
59.9

Item CC(C)c1noc(CCNC(=O)N2CCN(c3cccs3)CC2)n1 has what recorded cytotoxicity at 70.5 h?
40.3

Item O=S(=O)(c1ccccc1)N1CCC2(CCCN2Cc2ccc(Cl)cc2)C1 (configuration not stated) has what recorded cytotoxicity at 70.5 h?
-7.11

Item Cc1nc[nH]c1CN1C[C@@H]2CC[C@H](C1)N(C(=O)c1cnn(C)c1)C2 has what recorded cytotoxicity at 70.5 h?
7.73

Item O=C(c1cccc(-c2ncc[nH]2)c1)N1CCC(N2CCCC(O)C2)CC1 (configuration not stated) has what recorded cytotoxicity at 70.5 h?
4.83

Item Cn1c(C(N)=O)cc2c1CN(C(=O)C1CCCN(C3CCCC3)C1)CC2 (configuration not stated) has what recorded cytotoxicity at 70.5 h?
-7.9

Item O=C(c1ccc(F)c(F)c1)N1CCC[C@]2(C[C@@H](OCC3CC3)CO2)C1 has what recorded cytotoxicity at 70.5 h?
-12.6

Item NC(=O)CNC(=O)c1cc(Cn2cnc3ccccc32)[nH]n1 has what recorded cytotoxicity at 70.5 h?
-5.83

Item Cc1cccc(C(CNC(=O)NCc2cc[nH]n2)N2CCOCC2)c1 (configuration not stated) has what recorded cytotoxicity at 70.5 h?
-14.8

###

- assay_explanation: Human HepG2 cell viability assay in 384 well format
- Format: toxicity, cell-based
- Set-up: dose 125 nL, time 70.5 hour; concentration not given beside the values
- experimental_conditions: HepG2 cells, read-out: Inhibition
Consider the following molecules and their measured cytotoxicity at 70.5 h readings.
Give just the numeric value; % need not be written.

Examples with answers:
Item Cc1nc(C(=O)N2CC[C@@]3(C[C@H](NS(C)(=O)=O)CCO3)C2)cs1 has what recorded cytotoxicity at 70.5 h?
-7.15

Item CN(C)c1ncc(-c2ccc(NC(=O)[C@@H]3CCCCN3)cc2)cn1 has what recorded cytotoxicity at 70.5 h?
-0.758

Item COc1cccc(-c2n[nH]cc2-c2nc(CN3CCCC3)no2)c1 has what recorded cytotoxicity at 70.5 h?
1.58

Item COc1ccccc1Oc1ncccc1CNC(=O)C1(C)CCCNC1 (centres undefined) has what recorded cytotoxicity at 70.5 h?
-1.4

Item COc1coc(CN2CCCC(CCc3ccc(F)cc3)C2)cc1=O (centres undefined) has what recorded cytotoxicity at 70.5 h?
2.53

More entries:
Item CCCc1nc(CN(CC)Cc2ccc(O)c(C(=O)O)c2)no1 has what recorded cytotoxicity at 70.5 h?
-8.69

Item COc1cc2c(cc1OC)S(=O)(=O)N(Cc1cnn(C)c1)C2=O has what recorded cytotoxicity at 70.5 h?
-22.9

Item Cc1nc(CN2CCC2(CCCc2ccccn2)C(=O)N(C)C)co1 (centres undefined) has what recorded cytotoxicity at 70.5 h?
-5.18

###

Consider the following compounds and their measured cytotoxicity at 70.5 h readings.
- assay_explanation: Human HepG2 cell viability assay in 384 well format
- Type: toxicity, cell-based
- Design: dose 125 nL, time 70.5 hour; concentration not given beside the values
- experimental_conditions: HepG2 cells, read-out: Inhibition
Give just the numeric value; % need not be written.

Item COCC(=O)N1C[C@H]2CNC[C@@]2(C(=O)NCc2c(C)noc2C)C1 has what recorded cytotoxicity at 70.5 h?
-0.367

More entries:
Item COc1cc(N2CCC3(CC2)CN(S(C)(=O)=O)c2ccccc23)ncn1 has what recorded cytotoxicity at 70.5 h?
-2.83

Item Cc1cncc(C(=O)N2CCOc3nc(C)ccc32)c1 has what recorded cytotoxicity at 70.5 h?
-7.26

Item Cn1c(-c2ccccc2Cl)nc2cc(C(=O)NCC3(C)COC3)cnc21 has what recorded cytotoxicity at 70.5 h?
4.56

Item Cc1ccc(C(=O)N2CC(C(N)=O)O[C@H](C)C2)c(C)c1 (stereo partly drawn) has what recorded cytotoxicity at 70.5 h?
1.19

Item CN(C)C(=O)c1ccn(COc2ccccc2Cl)n1 has what recorded cytotoxicity at 70.5 h?
-2.41

Item O=C(NCCNc1ccc(C(F)(F)F)cn1)c1ccc(F)cc1Cl has what recorded cytotoxicity at 70.5 h?
-3.01

Item Cc1cc(C)nc(N2CCC(C(=O)Nc3ncc[nH]3)CC2)n1 has what recorded cytotoxicity at 70.5 h?
-7.67

Item CC(C)N(C)Cc1ncn2c1CN(C(=O)C1CCCO1)CCC2 (stereo not drawn) has what recorded cytotoxicity at 70.5 h?
-0.921

Item CCc1c(O)nc(SCC(=O)c2ccccc2)n(-c2ccccc2)c1=O has what recorded cytotoxicity at 70.5 h?
-2.09

Item COCCN(Cc1ccoc1)C(=O)c1cccnc1SC has what recorded cytotoxicity at 70.5 h?
-0.295

Item CCc1nccn1C1CCCN(C(=O)CCCNc2ncccn2)C1 (stereo not drawn) has what recorded cytotoxicity at 70.5 h?
-1.35

Item O=C(NCC(Cc1cccc(F)c1)N1CCCC1=O)C1CCCC1 (stereo not drawn) has what recorded cytotoxicity at 70.5 h?
-13.2

Item CN1CCO[C@@H]2CN(C(=O)NCc3cccc(F)c3)CC[C@@H]2C1 has what recorded cytotoxicity at 70.5 h?
-3.54

Item CCc1c(O)n(C(C)CC)c(SCC(=O)c2ccccc2)nc1=O (stereo not drawn) has what recorded cytotoxicity at 70.5 h?
-8.65

###

- assay_explanation: Human HepG2 cell viability assay in 384 well format
- Assay type: toxicity, cell-based
- Parameters: dose 125 nL, time 70.5 hour; concentration not given beside the values
- experimental_conditions: HepG2 cells, read-out: Inhibition
metric_name: cytotoxicity at 70.5 h

Examples with answers:
Item O=C(OCC1CCN(c2ccccc2)C1)c1cscn1 (stereo not drawn) has what recorded cytotoxicity at 70.5 h?
-103%

Item O=S(=O)(c1cccs1)N1CCN2C[C@H](OCC3CC3)C[C@H]2C1 has what recorded cytotoxicity at 70.5 h?
-3.74%

# next compound below
Item CCOc1cc(F)ccc1NC(=O)N(C)Cc1cnn(C)c1 has what recorded cytotoxicity at 70.5 h?
-5.78%

###

Consider the following compounds and their measured cytotoxicity at 70.5 h readings.
- assay_explanation: Human HepG2 cell viability assay in 384 well format
- Type: toxicity, cell-based
- Set-up: dose 125 nL, time 70.5 hour; concentration not given beside the values
- experimental_conditions: HepG2 cells, read-out: Inhibition
Give just the numeric value; % need not be written.

Examples with answers:
Item Cc1cc(S(C)(=O)=O)c(C)c(S(=O)(=O)N2CCCC(C)C2)c1 (configuration not stated) has what recorded cytotoxicity at 70.5 h?
-7.71

Item COC(=O)c1ccc(N2CCN(C(=O)c3cnccn3)C(C)C2)cc1 (configuration not stated) has what recorded cytotoxicity at 70.5 h?
-6.45

Item Cc1ccc(C(=O)N2CCC3(CCN(C(=O)c4cccnc4)C3)CC2)o1 has what recorded cytotoxicity at 70.5 h?
-19.3

More entries:
Item Cc1csc2c(N3CCC(NCCCc4ccncc4)CC3)ncnc12 has what recorded cytotoxicity at 70.5 h?
-7.45

###

- assay_explanation: Human HepG2 cell viability assay in 384 well format
- Assay type: toxicity, cell-based
- Design: dose 125 nL, time 70.5 hour; concentration not given beside the values
- experimental_conditions: HepG2 cells, read-out: Inhibition
metric_name: cytotoxicity at 70.5 h (%)
Give just the numeric value; % need not be written.

Item CN(CCc1ccccc1)c1cnn(CC(=O)N2CCSCC2)c(=O)c1 has what recorded cytotoxicity at 70.5 h?
-3.48

Item Cc1nc(C2CCCNC2)cc(N(C)CCc2cn[nH]c2)n1 (stereo unspecified) has what recorded cytotoxicity at 70.5 h?
20.1

Item CC(=O)c1cnc(N(C)Cc2cc(C)cc(C)n2)nc1C has what recorded cytotoxicity at 70.5 h?
-8.24

Item CC(C)(NCC(=O)NCC1CC1)c1ccc2c(c1)OCCO2 has what recorded cytotoxicity at 70.5 h?
15.5

More entries:
Item c1cnc(N2CCC(C3CCN(CCCn4cccn4)C3)CC2)nc1 (stereo unspecified) has what recorded cytotoxicity at 70.5 h?
0.616

Item O=C([C@H](O)c1ccccc1)N1CCN(c2cccc(Cl)c2)C(=O)C1 has what recorded cytotoxicity at 70.5 h?
13.8

###

Consider the following compounds and their measured cytotoxicity at 70.5 h readings.
- assay_explanation: Human HepG2 cell viability assay in 384 well format
- Format: toxicity, cell-based
- Design: dose 125 nL, time 70.5 hour; concentration not given beside the values
- experimental_conditions: HepG2 cells, read-out: Inhibition
Give just the numeric value; % need not be written.

Item Cc1nc(NC(=O)c2c(-n3cnnn3)sc(C)c2C)sc1C has what recorded cytotoxicity at 70.5 h?
-8.41
